molecular target: PI3Kα (Homo sapiens (Human)); test: Inhibition of PI3Kα efficacy assay (ADP-Glo kinase assay); assay type: biochemical; settings: Table 4; read-out: PI3Kα inhibitory activity (IC50)
Sequence (P42336 whole entry): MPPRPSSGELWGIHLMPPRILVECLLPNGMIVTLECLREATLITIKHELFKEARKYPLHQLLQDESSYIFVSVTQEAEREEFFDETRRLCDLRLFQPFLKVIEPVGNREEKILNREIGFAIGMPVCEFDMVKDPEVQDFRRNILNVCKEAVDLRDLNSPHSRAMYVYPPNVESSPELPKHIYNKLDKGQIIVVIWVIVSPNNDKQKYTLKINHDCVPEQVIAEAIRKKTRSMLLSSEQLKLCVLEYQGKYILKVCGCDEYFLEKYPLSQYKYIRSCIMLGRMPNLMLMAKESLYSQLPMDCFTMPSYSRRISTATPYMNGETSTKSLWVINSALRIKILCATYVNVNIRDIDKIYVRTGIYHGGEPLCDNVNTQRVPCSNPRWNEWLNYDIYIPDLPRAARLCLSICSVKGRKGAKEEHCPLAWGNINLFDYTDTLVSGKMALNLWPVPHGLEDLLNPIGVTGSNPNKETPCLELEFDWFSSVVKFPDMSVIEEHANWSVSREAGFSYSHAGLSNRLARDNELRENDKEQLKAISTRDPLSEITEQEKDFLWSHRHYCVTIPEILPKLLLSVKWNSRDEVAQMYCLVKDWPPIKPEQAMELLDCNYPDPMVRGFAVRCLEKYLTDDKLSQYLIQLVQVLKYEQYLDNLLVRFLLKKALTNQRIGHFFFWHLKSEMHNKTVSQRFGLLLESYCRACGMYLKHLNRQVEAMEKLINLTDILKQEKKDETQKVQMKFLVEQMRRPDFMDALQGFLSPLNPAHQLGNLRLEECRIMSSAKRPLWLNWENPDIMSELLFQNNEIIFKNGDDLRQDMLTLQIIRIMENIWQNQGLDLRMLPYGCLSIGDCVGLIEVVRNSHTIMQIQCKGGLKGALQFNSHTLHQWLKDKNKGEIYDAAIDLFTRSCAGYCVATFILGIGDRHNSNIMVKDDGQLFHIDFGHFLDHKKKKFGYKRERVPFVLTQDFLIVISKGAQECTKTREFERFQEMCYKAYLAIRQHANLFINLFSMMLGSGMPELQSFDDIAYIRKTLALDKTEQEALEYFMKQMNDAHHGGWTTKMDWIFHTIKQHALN
Sequence (P27986 whole entry partner): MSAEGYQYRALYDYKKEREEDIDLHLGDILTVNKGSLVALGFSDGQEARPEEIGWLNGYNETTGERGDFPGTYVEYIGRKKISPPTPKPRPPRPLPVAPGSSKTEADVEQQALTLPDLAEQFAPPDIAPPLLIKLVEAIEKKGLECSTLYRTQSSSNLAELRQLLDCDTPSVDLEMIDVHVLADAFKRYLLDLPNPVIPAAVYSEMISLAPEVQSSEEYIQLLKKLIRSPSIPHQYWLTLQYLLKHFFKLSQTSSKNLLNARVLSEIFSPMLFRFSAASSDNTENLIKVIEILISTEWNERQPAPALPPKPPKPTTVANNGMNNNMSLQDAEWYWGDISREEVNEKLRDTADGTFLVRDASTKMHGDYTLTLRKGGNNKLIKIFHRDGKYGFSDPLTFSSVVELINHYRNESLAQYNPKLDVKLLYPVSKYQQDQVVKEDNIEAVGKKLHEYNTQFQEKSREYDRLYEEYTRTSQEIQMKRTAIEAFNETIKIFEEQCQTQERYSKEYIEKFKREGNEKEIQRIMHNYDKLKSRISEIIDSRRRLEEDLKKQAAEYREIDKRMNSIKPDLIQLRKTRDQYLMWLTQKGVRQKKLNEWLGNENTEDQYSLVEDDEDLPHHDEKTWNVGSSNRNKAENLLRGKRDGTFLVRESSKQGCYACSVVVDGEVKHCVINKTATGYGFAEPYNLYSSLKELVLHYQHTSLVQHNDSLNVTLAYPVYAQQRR
Observation type: IC50 (nM)
Respond with the bare value in nM.

The recorded IC50 for COc1ncc(-c2ccc3ncnc(N4CCN(C(=O)/C=C/C(C)=O)CC4)c3c2)cc1NS(=O)(=O)c1ccc(Cl)cc1F [Example 177] is 5

The recorded IC50 for COc1ncc(-c2ccc3ncnc(N4CC5(CN(C(=O)/C=C/C(C)=O)C5)C4)c3c2)cc1NS(=O)(=O)c1ccc(F)cc1F [Example 141] is 0.3

The recorded IC50 for COc1ncc(-c2ccc3ncnc(N4CC5CCC(C4)N5C(=O)/C=C/C(C)=O)c3c2)cc1NS(=O)(=O)c1c(F)cncc1F [Example 162] is 2.4

* * *

Give pIC50 for every item shown.
target: PI3Kα (Homo sapiens (Human)); assay: Inhibition of PI3Kα efficacy assay (ADP-Glo kinase assay); assay type: biochemical; settings: Table 2; read-out: PI3Kα inhibitory activity (IC50)
Units for pIC50: none; it is -log10 of a concentration expressed in mol/L.

The recorded pIC50 for C=C(F)C(=O)N1CCN(c2ncnc3ccc(-c4cnc(OC)c(NS(=O)(=O)c5c(F)cc(F)cc5F)c4)cc23)CC1 is 8.01

The recorded pIC50 for COc1ncc(-c2ccc3ncnc(N4CCN(C(=O)/C=C/C(C)=O)CC4)c3c2)cc1NS(=O)(=O)c1ccc(C)cc1F is 8.06

The recorded pIC50 for COc1ncc(-c2ccc3ncnc(N4CCN(C(=O)C5=CC(=O)CC5)CC4)c3c2)cc1NS(=O)(=O)c1ccc(F)cc1F is 8.74

The recorded pIC50 for COc1ncc(-c2ccc3ncnc(N4CC5CCC(C4)N5C(=O)/C=C/C(C)=O)c3c2)cc1NS(=O)(=O)c1ccc(F)cc1F is 8.44

The recorded pIC50 for CC(=O)/C=C/C(=O)N1CCN(c2ncnc3ccc(-c4cnc(Cl)c(NS(=O)(=O)c5c(F)cccc5F)c4)cc23)CC1 is 9.08

The recorded pIC50 for C=CC(=O)N1CCN(c2ncnc3ccc(-c4cnc(OC)c(N(C)S(=O)(=O)c5c(F)cccc5F)c4)cc23)CC1 is 7.05

The recorded pIC50 for COc1ncc(-c2ccc3ncnc(N4CCN(C(=O)/C=C/P(C)(C)=O)CC4)c3c2)cc1NS(=O)(=O)c1ccc(F)cc1F is 8.12

The recorded pIC50 for C=C(F)C(=O)N1CC2(CCN(c3ncnc4ccc(-c5cnc(OC)c(NS(=O)(=O)c6ccc(F)cc6F)c5)cc34)C2)C1 is 8.41

The recorded pIC50 for COc1ncc(-c2ccc3ncnc(N4CCC5(CC4)CN(C(=O)/C=C/C(C)=O)C5)c3c2)cc1NS(=O)(=O)c1c(F)cc(F)cc1F is 8.00

The recorded pIC50 for CCOc1ncc(-c2ccc3ncnc(N4CCN(C(=O)/C=C/C(C)=O)CC4)c3c2)cc1NS(=O)(=O)c1ccc(F)cc1F is 8.46

The recorded pIC50 for C=C(F)C(=O)N1C[C@H](C)N(c2ncnc3ccc(-c4cnc(OC)c(NS(=O)(=O)c5ccc(F)cc5F)c4)cc23)C[C@H]1C is 8.85

The recorded pIC50 for C=C(F)C(=O)N1CCN(c2ncnc3ccc(-c4cnc(OC)c(NS(=O)(=O)c5ccc(F)cn5)c4)cc23)CC1 is 8.52

The recorded pIC50 for C=C(F)C(=O)N1CCN(c2ncnc3ccc(-c4cnc(OC)c(NS(=O)(=O)c5ccc(F)cc5F)c4)cc23)C[C@@H]1CC#N is 8.54
